- Protocol details: Solubility limit observed in the Luc assay
- Assay type: physicochemical
- Recorded conditions: cell-based Luc induction (reporter) assay in HeLa cells

Structure smiles string	solubility
C[C@H]1C[C@@H]2[C@H]3CCC4=CC(=O)C=C[C@@]4(C)[C@]3(F)[C@H](O)C[C@@]2(C)[C@]1(O)C(=O)NCCNC(=O)c1cc(NC(=O)c2cc(NC(=O)c3cc(NC(=O)c4nccn4C)cn3C)cn2C)cn1C	≤ 10 µM
C[C@H]1C[C@@H]2[C@H]3CCC4=CC(=O)C=C[C@@]4(C)[C@]3(F)[C@H](O)C[C@@]2(C)[C@]1(O)C(=O)NCCNC(=O)c1cc(NC(=O)c2cc(NC(=O)c3cc(NC(=O)c4cc(NC(=O)CCCNC(=O)c5cc(NC(=O)c6cc(NC(=O)c7cc(NC(=O)c8nccn8C)cn7C)cn6C)cn5C)cn4C)cn3C)cn2C)cn1C	≤ 10 µM

----------
- Test target: Gal4DBD-GRLBD-VP16 fusion protein in HeLa cells (Homo sapiens, UniProt P04150)
- Sequence (P04150 524-758 limits assumed): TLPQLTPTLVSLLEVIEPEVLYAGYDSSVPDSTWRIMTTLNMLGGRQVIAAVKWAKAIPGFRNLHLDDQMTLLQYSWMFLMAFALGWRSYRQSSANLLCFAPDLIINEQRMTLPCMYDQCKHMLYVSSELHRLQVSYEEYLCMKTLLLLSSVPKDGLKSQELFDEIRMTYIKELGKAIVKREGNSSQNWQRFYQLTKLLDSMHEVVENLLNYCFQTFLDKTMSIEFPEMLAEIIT
- Type: cell-based
Reported concentration at which maximum Luc induction was achieved values for the following compounds.
Property measured: concentration at which maximum Luc induction was achieved (µM)

Structure smiles string	Val
CC(=O)NCCCN(C)CCCNC(=S)NCCSCC(=O)[C@@]1(O)[C@H](C)C[C@H]2[C@@H]3CCC4=CC(=O)C=C[C@]4(C)[C@@]3(F)[C@@H](O)C[C@@]21C	6
C[C@H]1C[C@@H]2[C@H]3CCC4=CC(=O)C=C[C@@]4(C)[C@]3(F)[C@H](O)C[C@@]2(C)[C@]1(O)C(=O)CSCCNC(=S)NCCNC(=O)c1cc(NC(=O)c2cc(NC(=O)c3nccn3C)cn2C)cn1C	6
CC(=O)NCCNC(=S)NCCSCC(=O)[C@@]1(O)[C@H](C)C[C@H]2[C@@H]3CCC4=CC(=O)C=C[C@]4(C)[C@@]3(F)[C@@H](O)C[C@@]21C	0.6

Origin of values: paper PMC2810552
